# Experiment Description: Cell viability of primary human hepatocytes (CellTiter-Glo, intracellular ATP)
# Type: cell-based
# Cond: human, cryopreserved primary human hepatocytes, donor HuM4059; 6 days; read-out: HuM4059 CC50
# Experimental: Cryopreserved primary human hepatocytes from individual donors (primary hepatocyte IDs: HuM4038, HuM4055A, and HuM4059) were purchased from Triangle Research Labs (TRL; Research Triangle Park, N.C.). […] For each donor, three 96-well plates were set up to evaluate the effect of increasing concentrations of Compound 1 either alone or in combination with nucleoside analogs on hepatocyte cell viability. […] Background signal was determined as the mean value from wells containing only culture medium. […]
Entries annotated with measured CC50 at 6 days

Known CC50 at 6 days results, listed for orientation:
INSERT INTO measurements (smiles_entry, quantity_kind, observed_measurement) VALUES
  ('Nc1ccn([C@@H]2CS[C@H](CO)O2)c(=O)n1', 'CC50 at 6 days', '> 300 µM'),
  ('C=C1[C@H](CO)[C@@H](O)C[C@@H]1n1cnc2c(=O)[nH]c(N)nc21', 'CC50 at 6 days', '> 30 µM');

Exercise: For the compound `O=C(Nc1cc(F)c(F)c(F)c1)c1ccc(F)c(S(=O)(=O)N2CCC(O)CC2)c1` , what CC50 at 6 days is on record?
Solution: 82 µM

* * *

# Experiment Description: Cell viability of primary human hepatocytes (CellTiter-Glo, intracellular ATP)
# Format: cell-based
# Cond: human, cryopreserved primary human hepatocytes, Table 5, alone; donor HuM4038; read-out: Cmpd (I) CC50
Quantity Kind: CC50 at 6 days

Exercise: For the molecule `O=C(Nc1cc(F)c(F)c(F)c1)c1ccc(F)c(S(=O)(=O)N2CCC(O)CC2)c1` , what CC50 at 6 days is on record?
Solution: 16 µM

* * *

# Experiment Description: Cell viability of primary human hepatocytes (CellTiter-Glo, intracellular ATP)
# Type: cell-based
# Cond: human, cryopreserved primary human hepatocytes, Table 4, alone; donor HuM4055A; read-out: Cmpd (I) CC50
Quantity Kind: CC50 at 6 days (µM)
Give the number; µM is assumed, so skip it.

Exercise: For the molecule `O=C(Nc1cc(F)c(F)c(F)c1)c1ccc(F)c(S(=O)(=O)N2CCC(O)CC2)c1` , what CC50 at 6 days is on record?
Solution: 19

* * *

Entries annotated with measured CC50 at 6 days
# Experiment Description: Cell viability of primary human hepatocytes (CellTiter-Glo, intracellular ATP)
# Assay type: cell-based
# Cond: human, cryopreserved primary human hepatocytes, donor HuM4038, first HuM4038 column of Table 3; 6 days; read-out: HuM4038 CC50

INSERT INTO assay_data (compound, quantity_kind, observed_measurement) VALUES
  ('O=C(Nc1cc(F)c(F)c(F)c1)c1ccc(F)c(S(=O)(=O)N2CCC(O)CC2)c1 [Compound 1]', 'CC50 at 6 days', '16 µM'),
  ('Nc1ccn([C@@H]2CS[C@H](CO)O2)c(=O)n1 [LMV, Lamivudine]', 'CC50 at 6 days', '> 30 µM');

Exercise: For the compound C=C1[C@H](CO)[C@@H](O)C[C@@H]1n1cnc2c(=O)[nH]c(N)nc21 [ETV, entecavir] , what CC50 at 6 days is on record?
Solution: > 30 µM

* * *

# System: primary human hepatocytes
# Experiment Description: Cell viability of primary human hepatocytes (CellTiter-Glo, intracellular ATP)
# Assay type: cell-based
# Cond: donor HuM4038, first HuM4038 column of Table 3; 6 days; read-out: HuM4038 CC50
Quantity Kind: CC50

Exercise: For the compound `C[C@H](Cn1cnc2c(N)ncnc21)OCP(=O)(O)O` , what CC50 is on record?
Solution: > 30 µM
